target: full length human IRAK4 protein (Homo sapiens)
Sequence (Q9NWZ3 whole entry): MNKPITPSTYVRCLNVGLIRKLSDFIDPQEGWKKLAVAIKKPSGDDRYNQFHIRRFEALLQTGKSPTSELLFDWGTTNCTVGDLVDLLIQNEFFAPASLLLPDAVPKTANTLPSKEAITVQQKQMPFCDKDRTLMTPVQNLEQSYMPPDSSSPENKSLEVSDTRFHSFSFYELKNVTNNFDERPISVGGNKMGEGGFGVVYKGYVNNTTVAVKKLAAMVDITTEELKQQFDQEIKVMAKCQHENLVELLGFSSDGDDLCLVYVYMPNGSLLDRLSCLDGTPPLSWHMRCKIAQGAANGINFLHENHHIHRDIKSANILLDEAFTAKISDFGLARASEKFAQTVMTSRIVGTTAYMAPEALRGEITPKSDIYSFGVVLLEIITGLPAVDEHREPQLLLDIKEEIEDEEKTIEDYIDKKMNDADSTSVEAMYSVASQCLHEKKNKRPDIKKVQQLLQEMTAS
I'd appreciate it if you could supply pIC50 values for the items below.
Keep it numeric: pIC50 is minus log10 of the concentration in mol/L.

Reported pIC50 for `CC[C@@H]1[C@H](F)C(=O)N[C@@H]1COc1ncc(C#C[C@H](C)O)c2cc(C(N)=O)c(OC)cc12` was 7.56

Reported pIC50 for `CC[C@@H]1[C@H](F)C(=O)N[C@@H]1COc1ncc(C#CC(C)(C)O)c2cc(C(N)=O)c(OC(C)C)cc12` was 7.59

Reported pIC50 for `CC[C@@H]1[C@H](F)C(=O)N[C@@H]1COc1ncc(C#CCOC)c2cc(C(N)=O)c(OC(C)C)cc12` was 7.57

Reported pIC50 for `CC[C@@H]1[C@H](F)C(=O)N[C@@H]1COc1ncc(C#CC(C)(C)N)c2cc(C(N)=O)c(OC)cc12` was 7.20

Reported pIC50 for `CC[C@@H]1[C@H](F)C(=O)N[C@@H]1COc1ncc(C#CC(C)(C)N(C)C)c2cc(C(N)=O)c(OC(C)C)cc12` was 7.41

Reported pIC50 for `CC[C@@H]1[C@H](F)C(=O)N[C@@H]1COc1ncc(C#CC(C)(C)N(C)C)c2cc(C(N)=O)c(OC)cc12` was 8.05

Reported pIC50 for `CC[C@@H]1[C@H](F)C(=O)N[C@@H]1COc1ncc(C#Cc2cccnc2)c2cc(C(N)=O)c(OC)cc12` was 7.54

Reported pIC50 for `CC[C@@H]1[C@H](F)C(=O)N[C@@H]1COc1ccc(C#CCN(C)C)c2cc(C(N)=O)c(OC)cc12` was 7.92

Reported pIC50 for `CC[C@@H]1[C@H](F)C(=O)N[C@@H]1COc1ncc(C#Cc2cncnc2)c2cc(C(N)=O)c(OC)cc12` was 7.16

Reported pIC50 for `CC[C@@H]1[C@H](F)C(=O)N[C@@H]1COc1ncc(C#Cc2ccncc2)c2cc(C(N)=O)c(OC)cc12` was 7.64

Reported pIC50 for `CC[C@@H]1[C@H](F)C(=O)N[C@@H]1COc1ncc(C#CC(C)(C)C)c2cc(C(N)=O)c(OC)cc12` was 7.35

Reported pIC50 for `COc1cc2c(OC[C@@H]3CCC(=O)N3)ncc(C#CCN(C)C)c2cc1C(N)=O` was 8.12

Reported pIC50 for `CC[C@@H]1[C@H](F)C(=O)N[C@@H]1COc1ncc(C#Cc2nnn(C)n2)c2cc(C(N)=O)c(OC)cc12` was 7.66

Reported pIC50 for `CC[C@@H]1[C@H](F)C(=O)N[C@@H]1COc1ncc(C#CC(C)(C)O)c2cc(C(N)=O)c(OC)cc12` was 7.77

Reported pIC50 for `CC[C@@H]1[C@H](F)C(=O)N[C@@H]1COc1ncc(C#Cc2cnccn2)c2cc(C(N)=O)c(OC)cc12` was 7.74

Reported pIC50 for `CC[C@@H]1[C@H](F)C(=O)N[C@@H]1COc1ncc(C#Cc2ccccc2)c2cc(C(N)=O)c(OC)cc12` was 7.62

---

target: full length human IRAK4 protein (Homo sapiens); construct: Purified full length human IRAK4 protein; purchased Signal Chem I12-10G-125; test: IRAK4 Biochemical Assay (Promega ADP-Glo IRAK4 Kinase Enzyme System); conditions: maximum inhibition; 3 nM enzyme, 250 μM ATP
I'd appreciate it if you could supply IRAK4 Biochemical Assay Max Inhibition (%) values for the items below.
Form entry: value (%) — number only.

Reported IRAK4 Biochemical Assay Max Inhibition (%) for `CC[C@@H]1[C@H](F)C(=O)N[C@@H]1COc1ncc(C#CC(C)(C)O)c2cc(C(N)=O)c(OC)cc12` was 100.0

Reported IRAK4 Biochemical Assay Max Inhibition (%) for `COCC#Cc1cnc(OC[C@@H]2CCC(=O)N2)c2cc(OC)c(C(N)=O)cc12` was 100.0

Reported IRAK4 Biochemical Assay Max Inhibition (%) for `CC[C@@H]1[C@H](F)C(=O)N[C@@H]1COc1ncc(C#Cc2ccccc2)c2cc(C(N)=O)c(OC)cc12` was 100.0

Reported IRAK4 Biochemical Assay Max Inhibition (%) for `CC[C@@H]1[C@H](F)C(=O)N[C@@H]1COc1ncc(C#Cc2cn[nH]c2)c2cc(C(N)=O)c(OC)cc12` was 100.0

Reported IRAK4 Biochemical Assay Max Inhibition (%) for `CC[C@@H]1[C@H](F)C(=O)N[C@@H]1COc1ncc(C#CC(C)(C)N(C)C)c2cc(C(N)=O)c(OC(C)C)cc12` was 93.0

Reported IRAK4 Biochemical Assay Max Inhibition (%) for `CC[C@@H]1[C@H](F)C(=O)N[C@@H]1COc1ncc(C#Cc2nnn(C)n2)c2cc(C(N)=O)c(OC)cc12` was 98.0

Reported IRAK4 Biochemical Assay Max Inhibition (%) for `CC[C@@H]1[C@H](F)C(=O)N[C@@H]1COc1ncc(C#Cc2nn[nH]n2)c2cc(C(N)=O)c(OC)cc12` was 100.0

Reported IRAK4 Biochemical Assay Max Inhibition (%) for `CC[C@@H]1[C@H](F)C(=O)N[C@@H]1COc1ncc(C#CC(C)(C)N)c2cc(C(N)=O)c(OC)cc12` was 100.0

Reported IRAK4 Biochemical Assay Max Inhibition (%) for `CC[C@@H]1[C@H](F)C(=O)N[C@@H]1COc1ncc(C#Cc2ncccn2)c2cc(C(N)=O)c(OC)cc12` was 99.0

Reported IRAK4 Biochemical Assay Max Inhibition (%) for `CC[C@@H]1[C@H](F)C(=O)N[C@@H]1COc1ncc(C#Cc2cnccn2)c2cc(C(N)=O)c(OC)cc12` was 95.0

Reported IRAK4 Biochemical Assay Max Inhibition (%) for `CC[C@@H]1[C@H](F)C(=O)N[C@@H]1COc1ncc(C#CC(=O)N(C)C)c2cc(C(N)=O)c(OC)cc12` was 95.0

Reported IRAK4 Biochemical Assay Max Inhibition (%) for `CC[C@@H]1[C@H](F)C(=O)N[C@@H]1COc1ncc(C#Cc2ccncc2)c2cc(C(N)=O)c(OC)cc12` was 100.0

Reported IRAK4 Biochemical Assay Max Inhibition (%) for `COc1cc2c(OC[C@@H]3CCC(=O)N3)ncc(C#CCN(C)C)c2cc1C(N)=O` was 97.0

Reported IRAK4 Biochemical Assay Max Inhibition (%) for `CC[C@@H]1[C@H](F)C(=O)N[C@@H]1COc1ncc(C#CCOC)c2cc(C(N)=O)c(OC(C)C)cc12` was 103.0

Reported IRAK4 Biochemical Assay Max Inhibition (%) for `CC[C@@H]1[C@H](F)C(=O)N[C@@H]1COc1ncc(C#CCOC)c2cc(C(N)=O)c(OC)cc12` was 100.0

Reported IRAK4 Biochemical Assay Max Inhibition (%) for `CC[C@@H]1[C@H](F)C(=O)N[C@@H]1COc1ncc(C#CC(C)(C)C)c2cc(C(N)=O)c(OC)cc12` was 99.0

Data origin, for the record: patent US20220177446A1
